Numbers sourced from ChEMBL document CHEMBL1147571.

Catalogue of IC50 readings, one per entry.
# Test system: A-431
# Assay comment: Cytotoxic effect on A431 human epidermoid carcinoma cells (No response to 1 mM)
# Assay type: functional, cell-based

- Compound: "COc1cc(N)c(C(=O)Nc2ccccn2)cc1OC"
  IC50: "> 1000 µM"
- Compound: "COc1cc(N)c(C(=O)Nc2cccnc2)cc1OC"
  IC50: "> 1000 µM"
- Compound: "COc1cc(N)c(C(=O)NC2CCCCC2)cc1OC"
  IC50: "> 1000 µM"
- Compound: "COc1cc(N)c(C(=O)NC(C)c2ccccc2)cc1OC (stereo unspecified)"
  IC50: "> 1000 µM"
- Compound: "COc1cc(N)c(C(=O)Nc2ccc(F)c(Cl)c2)cc1OC"
  IC50: "> 1000 µM"
- Compound: "COc1cc(N)c(C(=O)Nc2ccncc2)cc1OC"
  IC50: "> 1000 µM"
